Listed below: viability, T/C values for each entry.
# Tested on: 628569-122-R-J1-PDC complex spheroid viability
# EXPERIMENTAL_PROTOCOL: Anticancer human tumor 628569-122-R-J1-PDC patient-derived head and neck squamous carcinoma cell line growth inhibition [CLK]
# CONDITION_NOTES: second compound 0.0316 µM; first compound 0.1 µM; stronger effect = lower value
Only the number, expressed in %, is required.

Would you please give the reported viability, T/C of Nc1ccccc1NC(=O)c1ccc(CNC(=O)OCc2cccnc2)cc1 + CN1CCN(c2cc(C(=O)Nc3cc4cc(-c5cnn(C)c5)ccc4cn3)ccn2)CC1 with 628569-122-R-J1-PDC complex spheroid viability? 103

Recall the reported viability, T/C of CC(CO)NC(=O)c1cc(-c2ccc(Cl)cc2)nn(-c2cnn(C)c2)c1=O (configuration not stated) + CN1CCN(c2cc(C(=O)Nc3cc4cc(-c5cnn(C)c5)ccc4cn3)ccn2)CC1 on 628569-122-R-J1-PDC complex spheroid viability and write it down. 195

====

# Test system: 628569-122-R-J1-PDC complex spheroid viability
# EXPERIMENTAL_PROTOCOL: Anticancer human tumor 628569-122-R-J1-PDC cell line growth inhibition [CLK];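 also: spheroids exposed to agents for seven days before readout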;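 as to viability, T/C: 100% = DMSO vehicle control viability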
# CONDITION_NOTES: second compound 0.0316 µM; first compound 10 µM; stronger effect = lower value
Mark 1.0 for viability, T/C under 40%, 0.0 if at or over.

Answered cases to consult:
[
  {
    "COMPOUND": "CC(Nc1ccc2c(c1)OCCn1cc(N3C(=O)OCC3C(F)F)nc1-2)C(N)=O (centres undefined) + CN1CCN(c2cc(C(=O)Nc3cc4cc(-c5cnn(C)c5)ccc4cn3)ccn2)CC1",
    "TARGET_OR_TEST_SYSTEM": "628569-122-R-J1-PDC complex spheroid viability",
    "LABEL_VALUE": 1.0
  },
  {
    "COMPOUND": "CCCS(=O)(=O)Nc1ccc(F)c(C(=O)c2c[nH]c3ncc(-c4ccc(Cl)cc4)cc23)c1F + CNC(=O)c1ccc(Nc2nc(OC3CCCC3)c3c(-c4ccc5nc(C)oc5c4)c[nH]c3n2)c(OC)c1",
    "TARGET_OR_TEST_SYSTEM": "628569-122-R-J1-PDC complex spheroid viability",
    "LABEL_VALUE": 0.0
  },
  {
    "COMPOUND": "Nc1ccccc1NC(=O)c1ccc(CNC(=O)OCc2cccnc2)cc1 + CN1CCN(c2cc(C(=O)Nc3cc4cc(-c5cnn(C)c5)ccc4cn3)ccn2)CC1",
    "TARGET_OR_TEST_SYSTEM": "628569-122-R-J1-PDC complex spheroid viability",
    "LABEL_VALUE": 1.0
  },
  {
    "COMPOUND": "O=C(c1cc(Cc2n[nH]c(=O)c3ccccc23)ccc1F)N1CCN(C(=O)C2CC2)CC1 + CN1CCN(c2cc(C(=O)Nc3cc4cc(-c5cnn(C)c5)ccc4cn3)ccn2)CC1",
    "TARGET_OR_TEST_SYSTEM": "628569-122-R-J1-PDC complex spheroid viability",
    "LABEL_VALUE": 0.0
  },
  {
    "COMPOUND": "C=CC(=O)N1CCN(c2nc(=O)n(-c3c(C)ccnc3C(C)C)c3nc(-c4c(O)cccc4F)c(F)cc23)C(C)C1 (centres undefined) + CN1CCN(c2cc(C(=O)Nc3cc4cc(-c5cnn(C)c5)ccc4cn3)ccn2)CC1",
    "TARGET_OR_TEST_SYSTEM": "628569-122-R-J1-PDC complex spheroid viability",
    "LABEL_VALUE": 0.0
  },
  {
    "COMPOUND": "COC1C=CCC(C)C(C)S(=O)(=O)NC(=O)c2ccc3c(c2)N(CC2CCC21)CC1(CCCc2cc(Cl)ccc21)CO3 (centres undefined) + CNC(=O)c1ccc(Nc2nc(OC3CCCC3)c3c(-c4ccc5nc(C)oc5c4)c[nH]c3n2)c(OC)c1",
    "TARGET_OR_TEST_SYSTEM": "628569-122-R-J1-PDC complex spheroid viability",
    "LABEL_VALUE": 0.0
  },
  {
    "COMPOUND": "COc1ccc([C@@H](O)c2cc(-c3ncnc4cc(N5CCOCC5)ccc34)c(F)cc2Cl)nn1 + CNC(=O)c1ccc(Nc2nc(OC3CCCC3)c3c(-c4ccc5nc(C)oc5c4)c[nH]c3n2)c(OC)c1",
    "TARGET_OR_TEST_SYSTEM": "628569-122-R-J1-PDC complex spheroid viability",
    "LABEL_VALUE": 1.0
  },
  {
    "COMPOUND": "C#Cc1c(F)ccc2cc(O)cc(-c3ncc4c(N5CC6CCC(C5)N6)nc(OCC56CCCN5CC(F)C6)nc4c3F)c12 (centres undefined) + CNC(=O)c1ccc(Nc2nc(OC3CCCC3)c3c(-c4ccc5nc(C)oc5c4)c[nH]c3n2)c(OC)c1",
    "TARGET_OR_TEST_SYSTEM": "628569-122-R-J1-PDC complex spheroid viability",
    "LABEL_VALUE": 0.0
  }
]

Here is another compound to look at.
Problem: For the compound CC(=O)O[C@H]1C(=O)[C@@]2(C)[C@H]([C@H](OC(=O)c3ccccc3)[C@]3(O)C[C@H](OC(=O)[C@H](O)[C@@H](NC(=O)c4ccccc4)c4ccccc4)C(C)=C1C3(C)C)[C@]1(OC(C)=O)CO[C@@H]1C[C@@H]2O + CNC(=O)c1ccc(Nc2nc(OC3CCCC3)c3c(-c4ccc5nc(C)oc5c4)c[nH]c3n2)c(OC)c1 , is viability, T/C under 40%? 0.0

====

# Tested on: 628569-122-R-J1-PDC complex spheroid viability
# EXPERIMENTAL_PROTOCOL: Anticancer human tumor 628569-122-R-J1-PDC cell line growth inhibition [CLK];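 also: spheroids exposed to agents for seven days before readout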;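 as to viability, T/C: 100% = DMSO vehicle control viability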
# CONDITION_NOTES: second compound 0.316 µM; first compound 1 µM; stronger effect = lower value
viability, T/C listing for selected compounds.

[
  {
    "COMPOUND": "CC(CO)NC(=O)c1cc(-c2ccc(Cl)cc2)nn(-c2cnn(C)c2)c1=O (stereo not drawn) + CNC(=O)c1ccc(Nc2nc(OC3CCCC3)c3c(-c4ccc5nc(C)oc5c4)c[nH]c3n2)c(OC)c1",
    "viability, T/C": "104%"
  },
  {
    "COMPOUND": "CC1COCCN1c1cc(C2(S(C)(=N)=O)CC2)nc(-c2ccnc3[nH]ccc23)n1 (stereo not drawn) + CNC(=O)c1ccc(Nc2nc(OC3CCCC3)c3c(-c4ccc5nc(C)oc5c4)c[nH]c3n2)c(OC)c1",
    "viability, T/C": "52.3%"
  }
]

Check the records and state viability, T/C for COc1cccc2c1C(=O)c1c(O)c3c(c(O)c1C2=O)CC(O)(C(=O)CO)CC3OC1CC(N)C(O)C(C)O1 (stereo not drawn) + CNC(=O)c1ccc(Nc2nc(OC3CCCC3)c3c(-c4ccc5nc(C)oc5c4)c[nH]c3n2)c(OC)c1 9.78%

Indicate the recorded viability, T/C value for this compound: CCc1c2c(nc3ccc(O)cc13)-c1cc3c(c(=O)n1C2)COC(=O)[C@]3(O)CC + CNC(=O)c1ccc(Nc2nc(OC3CCCC3)c3c(-c4ccc5nc(C)oc5c4)c[nH]c3n2)c(OC)c1 21.8%

For the compound Nc1ccn(C2OC(CO)C(O)C2(F)F)c(=O)n1 (stereo not drawn) + CNC(=O)c1ccc(Nc2nc(OC3CCCC3)c3c(-c4ccc5nc(C)oc5c4)c[nH]c3n2)c(OC)c1 , give its reported viability, T/C. 40.6%

Hello, please tell me recorded viability, T/C for this one: CCCS(=O)(=O)Nc1ccc(F)c(C(=O)c2c[nH]c3ncc(-c4ccc(Cl)cc4)cc23)c1F + CNC(=O)c1ccc(Nc2nc(OC3CCCC3)c3c(-c4ccc5nc(C)oc5c4)c[nH]c3n2)c(OC)c1 64.8%

Name the recorded viability, T/C of the compound listed here: CC(=O)O[C@H]1C(=O)[C@@]2(C)[C@H]([C@H](OC(=O)c3ccccc3)[C@]3(O)C[C@H](OC(=O)[C@H](O)[C@@H](NC(=O)c4ccccc4)c4ccccc4)C(C)=C1C3(C)C)[C@]1(OC(C)=O)CO[C@@H]1C[C@@H]2O + CN1CCN(c2cc(C(=O)Nc3cc4cc(-c5cnn(C)c5)ccc4cn3)ccn2)CC1 41%

Hello, please tell me recorded viability, T/C for this one: CC1(C)CCC(CN2CCN(c3ccc(C(=O)NS(=O)(=O)c4ccc(NCC5CCOCC5)c([N+](=O)[O-])c4)c(Oc4cnc5[nH]ccc5c4)c3)CC2)=C(c2ccc(Cl)cc2)C1 + CN1CCN(c2cc(C(=O)Nc3cc4cc(-c5cnn(C)c5)ccc4cn3)ccn2)CC1 36%

====

# Tested on: 628569-122-R-J1-PDC complex spheroid viability
# EXPERIMENTAL_PROTOCOL: Anticancer human tumor 628569-122-R-J1-PDC cell line growth inhibition [CLK];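 also: spheroids exposed to agents for seven days before readout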
# CONDITION_NOTES: curve of first compound; second compound 1 µM
Attribute: IC50

Past entries and their recorded results:
[
  {
    "COMPOUND": "COc1c(OCCCN2CCOCC2)ccc2c3n(c(=NC(=O)c4cnc(N)nc4)nc12)CCN3 + CNC(=O)c1ccc(Nc2nc(OC3CCCC3)c3c(-c4ccc5nc(C)oc5c4)c[nH]c3n2)c(OC)c1",
    "IC50": "< 3.16 nM"
  },
  {
    "COMPOUND": "CC1(C)CCC(CN2CCN(c3ccc(C(=O)NS(=O)(=O)c4ccc(NCC5CCOCC5)c([N+](=O)[O-])c4)c(Oc4cnc5[nH]ccc5c4)c3)CC2)=C(c2ccc(Cl)cc2)C1 + CNC(=O)c1ccc(Nc2nc(OC3CCCC3)c3c(-c4ccc5nc(C)oc5c4)c[nH]c3n2)c(OC)c1",
    "IC50": "> 10000 nM"
  },
  {
    "COMPOUND": "CCN1CCN(Cc2ccc(Nc3ncc(F)c(-c4cc(F)c5nc(C)n(C(C)C)c5c4)n3)nc2)CC1 + CN1CCN(c2cc(C(=O)Nc3cc4cc(-c5cnn(C)c5)ccc4cn3)ccn2)CC1",
    "IC50": "< 3.16 nM"
  },
  {
    "COMPOUND": "CC(Nc1ccc2c(c1)OCCn1cc(N3C(=O)OCC3C(F)F)nc1-2)C(N)=O (stereo unspecified) + CN1CCN(c2cc(C(=O)Nc3cc4cc(-c5cnn(C)c5)ccc4cn3)ccn2)CC1",
    "IC50": "< 31.6 nM"
  },
  {
    "COMPOUND": "Nc1ccn(C2OC(CO)C(O)C2(F)F)c(=O)n1 (stereo unspecified) + CN1CCN(c2cc(C(=O)Nc3cc4cc(-c5cnn(C)c5)ccc4cn3)ccn2)CC1",
    "IC50": "< 31.6 nM"
  },
  {
    "COMPOUND": "C=CC(=O)Nc1cc(Nc2nccc(-c3cn(C)c4ccccc34)n2)c(OC)cc1N(C)CCN(C)C + CN1CCN(c2cc(C(=O)Nc3cc4cc(-c5cnn(C)c5)ccc4cn3)ccn2)CC1",
    "IC50": "< 0.949 nM"
  },
  {
    "COMPOUND": "NC(=O)C(=Cn1cnc(-c2cc(C(F)(F)F)cc(C(F)(F)F)c2)n1)c1cncnc1 + CNC(=O)c1ccc(Nc2nc(OC3CCCC3)c3c(-c4ccc5nc(C)oc5c4)c[nH]c3n2)c(OC)c1",
    "IC50": "< 9.49 nM"
  },
  {
    "COMPOUND": "CC(C)CC(NC(=O)C(Cc1ccccc1)NC(=O)c1cnccn1)B(O)O (stereo unspecified) + CN1CCN(c2cc(C(=O)Nc3cc4cc(-c5cnn(C)c5)ccc4cn3)ccn2)CC1",
    "IC50": "< 0.949 nM"
  }
]

Read the entry Cn1ncnc1[C@H]1c2n[nH]c(=O)c3cc(F)cc(c23)N[C@@H]1c1ccc(F)cc1 + CNC(=O)c1ccc(Nc2nc(OC3CCCC3)c3c(-c4ccc5nc(C)oc5c4)c[nH]c3n2)c(OC)c1 and write its reported IC50. < 0.316 nM

Please supply the value of reported IC50 for the item CC1COCCN1c1cc(C2(S(C)(=N)=O)CC2)nc(-c2ccnc3[nH]ccc23)n1 (stereo unspecified) + CN1CCN(c2cc(C(=O)Nc3cc4cc(-c5cnn(C)c5)ccc4cn3)ccn2)CC1 < 31.6 nM

For the compound CC(CO)NC(=O)c1cc(-c2ccc(Cl)cc2)nn(-c2cnn(C)c2)c1=O (stereo unspecified) + CNC(=O)c1ccc(Nc2nc(OC3CCCC3)c3c(-c4ccc5nc(C)oc5c4)c[nH]c3n2)c(OC)c1 , report IC50. > 10000 nM
